Provide the recorded inhibition at 3 µM for the entries that follow.
system: THP-1 cells; assay: Human monocytic THP-1 cell differentiation assay for soluble proteins (THP-1 soluble protein assay); type: cell-based; settings: LPS-stimulated THP-1 cells, soluble protein not given
Reply with just the number (in %).

Task: inhibition at 3 µM for `CC#CCOc1ccc(SCC2(C(=O)NO)CCNCC2)cc1` ?
Output: 8

Task: Name the recorded inhibition at 3 µM for `CC#CCOc1ccc(S(=O)(=O)CC2(C(=O)NO)CCN(CC#CCO)CC2)cc1` .
Output: 48

Task: So what's the measured inhibition at 3 µM for this one? `CC#CCOc1ccc(S(=O)(=O)CC2(C(=O)NO)CCN(C(=O)OC(C)(C)C)CC2)cc1`
Output: 68

Task: Given `CC#CCOc1ccc(S(=O)(=O)C2(C(=O)NO)CCN(Cc3cccnc3)CC2)cc1` , state its recorded inhibition at 3 µM.
Output: 62

Task: Need inhibition at 3 µM, item `C#CCOc1ccc(S(=O)(=O)C2(C(=O)NO)CCN(Cc3ccc(OC)cc3)CC2)cc1`
Output: 13
